# PROTOCOL: Antioxidant activity measurement (DPPH)
# Format: biochemical
# TEST_CONTEXT: HA conjugate (native HA), DPPH % after 60 minutes; for 4AR first value, 14 % grafting
READOUT_KIND: DPPH [%] ± SD, n = 3 (%)
// units = %; emit number, no label

Nc1ccccc1 | 95

In the following, a different molecule is considered.
Fill in: DPPH [%] ± SD, n = 3 of "Cc1cc(=O)oc2cc(N)ccc12" is ___
61

---

# PROTOCOL: Antioxidant activity measurement (DPPH)
# Type: biochemical
# TEST_CONTEXT: HA conjugate (native HA), DPPH % after 60 minutes; for 4AR first value, 14 % grafting
Is DPPH [%] ± SD, n = 3 at least 70%? Then True. If not, False.

Completed entries (count: 3):
Nc1ccc(C(=O)O)c(O)c1 | True
CCOC(=O)[C@@H](N)CS | False
NCCc1ccc(O)cc1 | True

Now consider a different molecule.
Reported DPPH [%] ± SD, n = 3 at or above 70%? "Nc1ccc(O)c(C(=O)O)c1"
False
